# study_target: Fes (UniProt P07332)
# Sequence (P07332 whole entry, looked up): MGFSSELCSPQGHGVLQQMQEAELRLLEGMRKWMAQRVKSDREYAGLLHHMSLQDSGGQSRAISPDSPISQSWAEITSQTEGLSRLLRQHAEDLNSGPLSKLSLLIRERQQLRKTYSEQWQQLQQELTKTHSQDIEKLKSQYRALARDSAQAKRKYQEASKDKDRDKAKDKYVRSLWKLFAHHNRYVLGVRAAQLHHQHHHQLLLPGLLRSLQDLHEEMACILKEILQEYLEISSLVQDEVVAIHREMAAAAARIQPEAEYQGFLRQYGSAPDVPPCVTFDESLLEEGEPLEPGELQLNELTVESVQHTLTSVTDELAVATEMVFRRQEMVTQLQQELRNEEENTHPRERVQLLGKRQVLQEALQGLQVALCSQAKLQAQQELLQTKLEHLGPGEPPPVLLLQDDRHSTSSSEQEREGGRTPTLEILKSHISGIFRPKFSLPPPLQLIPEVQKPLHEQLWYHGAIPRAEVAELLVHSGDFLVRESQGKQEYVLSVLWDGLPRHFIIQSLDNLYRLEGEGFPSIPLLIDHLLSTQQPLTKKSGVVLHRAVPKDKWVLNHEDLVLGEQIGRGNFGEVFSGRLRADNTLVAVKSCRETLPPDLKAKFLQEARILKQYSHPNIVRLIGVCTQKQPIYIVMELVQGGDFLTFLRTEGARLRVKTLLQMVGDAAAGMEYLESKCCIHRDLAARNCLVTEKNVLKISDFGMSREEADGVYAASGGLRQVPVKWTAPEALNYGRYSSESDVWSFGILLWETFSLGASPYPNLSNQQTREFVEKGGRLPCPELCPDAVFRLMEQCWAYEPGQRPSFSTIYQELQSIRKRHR
# assay_comment: phosphorylation enrichment, bacterial display (enrichment ratio); higher = better substrate or ligand; peptides without Tyr show the background;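 further: 11-residue human phosphosite peptides and single-mutation variants displayed on the E. coli surface, counted by deep sequencing, each peptide's frequency after selection divided by its frequency in the unselected input library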;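 further: frequency after pTyr selection over input frequency; kinase dosed for 20-30% of maximal phosphorylation in three min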
assay_metric: phosphorylation enrichment
Enter a number only.

The sequence identified as CERFSYFGMKA [SLC15A2_Y60_YF] registered its phosphorylation enrichment at 1.26

Record summary for HSHTRYERNIE [F2_Y434_R431H] : reported phosphorylation enrichment = 0.85

According to the records, this sequence PINEPYGDDMD [JUP_Y693] displays phosphorylation enrichment of 1.75

The sequence listed as LARDMDDKEFF [MET_Y1230_Y1230D_YF] has a reported phosphorylation enrichment of 0.997

Lab note: SDQPDYDSVAS [GIT2_Y392_N387S] gave phosphorylation enrichment of 1.27

// phosphorylation enrichment lookup, sequence = RRIEKYVDQGK [IRAK3_Y61_H57R] , result: 0.662

Quick note, phosphorylation enrichment for STGSRYQPLAS [NCAPD2_Y1325] landed at 0.609

According to the records, this sequence HELYVYKCDEN [DOCK3_Y548] displays phosphorylation enrichment of 1.19

Entry NSIGNYYKPWF [DHCR24_Y299] , phosphorylation enrichment reported as 0.774

Given item EVVGKYSVHNA [MLH1_Y183_R182K] , the value recorded as its phosphorylation enrichment is 0.697

Entry DYSLKYATDIP [APC_Y1183] , phosphorylation enrichment reported as 1.29

Entry RIDPDYVGRVR [IGSF9_Y81] ; phosphorylation enrichment = 0.702

Sample QFKDKYLAKHN [CASK_Y712_YF] ; phosphorylation enrichment observed: 0.467

response.value for ESLSSYRESAK [APOC2_Y47_W48R] (field: phosphorylation enrichment) = 0.529

Record summary for DDLEVYLKHPL [SACS_Y3477_L3481P] : reported phosphorylation enrichment = 1.31

Lab book: phosphorylation enrichment of AKKVFYVNETR [SHH_Y253_I255N] noted as 0.737

phosphorylation enrichment for GASWRYGSGVS [NEU1_Y242] is 0.782

Consider PMFTKYGNSLL [RPGRIP1L_Y196] . Its measured phosphorylation enrichment is 1.73

For reference, reported phosphorylation enrichment for GLRYGYGGLGG [KRTAP20-2_Y15_V17G] stands at 0.564

Lab note: TQTPPYVKKHR [LARP1B_Y457_P462R] gave phosphorylation enrichment of 1.23

The sequence listed as SLIDGYYRLTE [JAK2_Y372_A377E] has a reported phosphorylation enrichment of 1.1

The sequence YLQEIHNSNNQ [FGG_Y140_Y140H] showed phosphorylation enrichment equal to 0.63

Lab note: measured phosphorylation enrichment of EPSVPYRGMVF [GLI3_Y104_T107M] was 0.816

Input PNATLYKMTSI [SERPINA7_Y40_S43T] . Output phosphorylation enrichment: 1.5

Given item FMLFQYLKQIE [RPAP3_Y569_D564Y_YF] , the value recorded as its phosphorylation enrichment is 1.36

response.value for LGSNGCKKLLK [SEPSECS_Y334_Y334C] (field: phosphorylation enrichment) = 0.826

Value of phosphorylation enrichment reported for the sequence ALERPYTSKHS [NANS_Y71] is 0.535

Notebook: ALAHKYPGGGG [HBB_Y146_H147P] , phosphorylation enrichment read as 0.632

For record KVPRHYDDPGK [FOXG1_Y246] the listed phosphorylation enrichment is 1.16

// recorded phosphorylation enrichment for CTTSHYNYMCN [TP53_Y234_I232S] : 0.755

Noted for KVKPIYFHTRG [AR_Y916_Q920R] : its phosphorylation enrichment reads 0.892

Field phosphorylation enrichment (entry RLGNQYVNVMN [SLC3A1_Y461] ) reads 0.727

// recorded phosphorylation enrichment for KELANYFKLHH [AK7_Y390_YF] : 0.877

Reported phosphorylation enrichment for AFQGKYTPSGQ [ALDOA_Y343_C339Y_YF] was 0.446

phosphorylation enrichment measured on DQVEQYNKELE [LMNA_Y259_K260N] = 1.23

LSPPVYLTNEW [NRK_Y885_I880L] has a reported phosphorylation enrichment of 1.26

Query GMRHGHGVRQS [JPH2_Y141_Y141H] yields phosphorylation enrichment of 0.803

phosphorylation enrichment recorded for this sequence, MHRRQYELLGG [GNAS_Y391_L388R] , is 0.715

The sequence listed as LEGKEYRMSGE [KRT3_Y511_E509K] has a reported phosphorylation enrichment of 0.985

Recorded result, DGNIDYAEFAK [MCFD2_Y138_Y135N] , phosphorylation enrichment: 1.2

Sure, the documented phosphorylation enrichment for TVVGLYQKSSL [MYH7_Y609] is 0.988

Record EIKLAYRRRPP [GRIN2B_Y1109_E1106K] , field phosphorylation enrichment: 0.532

Lab note: KPEKTYGLRNE [CEP43_Y267_K271N] gave phosphorylation enrichment of 0.569

Just so you know, measured phosphorylation enrichment for WAMLAYNRSKL [WWOX_Y293] came out at 1.04

SMVVPYEPPEV [TP53_Y220_V216M] yielded phosphorylation enrichment of 1.33

The value of phosphorylation enrichment measured for the sequence CENCHYPILPL [LCK_Y25_V28L] turned out to be 0.903

The sequence listed as QADVIYVNTQL [MERTK_Y872] has a reported phosphorylation enrichment of 1.43

So for IKRIDYEFVEM [ADA_Y84_A83D] , the logged phosphorylation enrichment turned out to be 1.18

Record LHQSTYQCFDV [SLC7A14_Y693_R695C_YF] , field phosphorylation enrichment: 1.25
